Listed here are compounds together with their documented CC50 at 72 h.
# assay.remarks: Cytotoxic evaluation on HepG2 cell line
# Format: cell-based
# applied.conditions: human, HepG2 cells (hepatocarcinoma cell line)

Below are worked cases with known answers.
compound	result
O=Cc1cccc(-c2cc3cccc([N+](=O)[O-])c3[nH]c2=O)c1 [Compound 16]	> 100 µM
O=Cc1ccccc1-c1cc2cccc([N+](=O)[O-])c2[nH]c1=O [Compound 17]	> 50 µM
O=Cc1ccc(-c2cc3cccc([N+](=O)[O-])c3[nH]c2=O)cc1 [Compound 15]	30 µM
COC(=O)c1ccc(-c2cc3cccc([N+](=O)[O-])c3[nH]c2=O)cc1 [Compound 18]	> 12.5 µM
O=c1[nH]c2c([N+](=O)[O-])cccc2cc1-c1ccc(F)cc1 [Compound 6]	> 6 µM

Ask: Look up and report measured CC50 at 72 h for this entry: COc1cccc2c1C(=O)c1c(O)c3c(c(O)c1C2=O)C[C@@](O)(C(=O)CO)C[C@@H]3O[C@H]1C[C@H](N)[C@H](O)[C@H](C)O1 [Doxorubicin, reference compound]
Reply: 0.2 µM

====

Below, each entry is listed alongside its reported pIC50.
# Test system: L. infantum axenic amastigotes
# assay.remarks: Antileishmanial activity on L. infantum axenic amastigotes
# Format: cell-based
# applied.conditions: Leishmania infantum, 48 h, read-out: IC50 L. infantum axenic amastigotes
pIC50: −log10 of the molar value.

Examples from the recorded data:
>>> print(df.to_string())
                              sample_smiles  result
0  O=c1[nH]c2c([N+](=O)[O-])cccc2cc1-c1ccc(CO)cc1  < 4.60
1  O=c1[nH]c2c([N+](=O)[O-])cccc2cc1-c1ccc(O)cc1  < 5.52
2  COc1ccc(-c2cc3cccc([N+](=O)[O-])c3[nH]c2=O)cc1  < 5.22
3  O=c1[nH]c2c([N+](=O)[O-])cccc2cc1-c1ccc(F)cc1  < 5.22

Kindly review the next compound as well.
Ask: # return recorded pIC50 for input `O=C(O)c1ccc(-c2cc3cccc([N+](=O)[O-])c3[nH]c2=O)cc1`
Reply: < 4.00
